# System: Peripheral blood mononuclear cells (PBMC)
# testName: Cytokine Induction in Human Cells (in vitro human blood cell system, IFN and TNF secreted into culture media)
# Assay type: cell-based
# runConditions: Homo sapiens, PBMC, lowest concentration found to induce tumor necrosis factor (α), 18 to 24 hours, ELISA or IGEN assay, tested 30-0.014 μM, read-out: Lowest Effective Concentration (μM) Tumor Necrosis Factor
Counter-ions that a name gives are not always drawn.
quantityKind: log10 of minimal effective concentration (log10 of the value in µM)

Nc1nc2ccccc2c2c1ncn2CCOC/C=C/c1ccccc1    0.05
CCCCc1nc2c(N)nc3ccccc3c2n1CCOc1ccccc1    0.52
Cc1nc2c(N)nc3ccccc3c2n1CCCOCC#Cc1ccccc1    -0.43
CCOCc1nc2c(N)nc3ccccc3c2n1CCOCc1ccccc1    -0.43
Nc1nc2ccccc2c2c1ncn2CCOc1ccccc1    0.05
CCOCc1nc2c(N)nc3ccccc3c2n1CCOCCCc1ccccc1 [Example 16, Hydrochloride]    -0.43
Nc1nc2ccccc2c2c1ncn2CCOCCCc1ccccc1C(=O)O [Example 13, trifluoroacetate]    1.00
Cc1ccc([N+](=O)[O-])c(OC(C)Cn2cnc3c(N)nc4ccccc4c32)c1 (centres unmarked)    1.00
CC[C@H](COCC#Cc1ccccc1)n1cnc2c(N)nc3ccccc3c21    -1.40
CC(C)Cc1nc2c(N)nc3ccccc3c2n1CCOc1ccccc1    0.52
CCCCc1nc2c(N)nc3ccccc3c2n1CCOCc1ccccc1    -1.40
